# System: EMC-BAC-2
# Experimental protocol: relative viability (nuclei count vs DMSO), 5 days (fraction); higher = more cells survive
# Assay setup: first compound 1.265 µM
Experimental endpoint: relative viability

Compound: O=C(O)c1ccc(-c2c[nH]c3ncc(-c4ccccc4)cc23)cc1C1CCCC1 + COc1cccc2cc(-c3nc([C@H]4CC[C@H](C(=O)O)CC4)n4ncnc(N)c34)[nH]c12 [OSI-027] (partner 0.5 µM)
relative viability: 0.365

I have this compound here, O=C(O)c1ccc(-c2c[nH]c3ncc(-c4ccccc4)cc23)cc1C1CCCC1 + CC(=O)Nc1cccc(-n2c(=O)n(C3CC3)c(=O)c3c(Nc4ccc(I)cc4F)n(C)c(=O)c(C)c32)c1 [Trametinib] (partner 0.02 µM) , and I need its recorded relative viability.
0.973

###

What relative viability was measured for each of the following?
# System: EPLC-272H
# Experimental protocol: relative viability (nuclei count vs DMSO), 5 days (fraction); higher = more cells survive
# Assay setup: first compound 0.1265 µM
Give bare numbers.

Sample answers from the record:
Molecule: O=C(O)c1ccc(-c2c[nH]c3ncc(-c4ccccc4)cc23)cc1C1CCCC1 + Nc1ncn([C@H]2C[C@H](O)[C@@H](CO)O2)c(=O)n1 [Decitabine] (partner 2 µM)
Target: EPLC-272H
relative viability: 0.402

Molecule: O=C(O)c1ccc(-c2c[nH]c3ncc(-c4ccccc4)cc23)cc1C1CCCC1 + O=C(CCCCCCC(=O)Nc1ccccc1)NO [Vorinostat] (partner 1 µM)
Target: EPLC-272H
relative viability: 0.654

Molecule: O=C(O)c1ccc(-c2c[nH]c3ncc(-c4ccccc4)cc23)cc1C1CCCC1 + C[C@@H](Oc1cc(-c2cnn(C3CCNCC3)c2)cnc1N)c1c(Cl)ccc(F)c1Cl [Crizotinib] (partner 1 µM)
Target: EPLC-272H
relative viability: 1.01

Each of the following entries comes with a recorded value; kindly state relative viability for each.
1. O=C(O)c1ccc(-c2c[nH]c3ncc(-c4ccccc4)cc23)cc1C1CCCC1 + Nc1nc2[nH]cc(CCc3ccc(C(=O)N[C@@H](CCC(=O)O)C(=O)O)cc3)c2c(=O)[nH]1 [Pemetrexed] (partner 0.2 µM)
2. O=C(O)c1ccc(-c2c[nH]c3ncc(-c4ccccc4)cc23)cc1C1CCCC1 + Cc1nc(NC(=O)N2CCC[C@H]2C(N)=O)sc1-c1ccnc(C(C)(C)C(F)(F)F)c1 [Alpelisib] (partner 2 µM)
3. O=C(O)c1ccc(-c2c[nH]c3ncc(-c4ccccc4)cc23)cc1C1CCCC1 + CS(=O)(=O)CCNCc1ccc(-c2ccc3ncnc(Nc4ccc(OCc5cccc(F)c5)c(Cl)c4)c3c2)o1 [Lapatinib] (partner 2 µM)
4. O=C(O)c1ccc(-c2c[nH]c3ncc(-c4ccccc4)cc23)cc1C1CCCC1 + Cc1nc(Nc2ncc(C(=O)Nc3c(C)cccc3Cl)s2)cc(N2CCN(CCO)CC2)n1 [Dasatinib] (partner 0.075 µM)
5. O=C(O)c1ccc(-c2c[nH]c3ncc(-c4ccccc4)cc23)cc1C1CCCC1 + CC(=O)c1c(C)c2cnc(Nc3ccc(N4CCNCC4)cn3)nc2n(C2CCCC2)c1=O [Palbociclib] (partner 0.5 µM)

0.336
0.974
1.01
0.416
0.332

###

# System: NCI-H441
# Experimental protocol: relative viability (nuclei count vs DMSO), 5 days (fraction); higher = more cells survive
# Assay setup: first compound 0.253 µM
Experimental endpoint: relative viability
One number for each entry.

Here is how some molecules turned out for relative viability.
Molecule: Oc1nc(-c2ccc(C(F)(F)F)cc2)nc2c1CSCC2 [XAV939] + CS(=O)(=O)N1CCN(Cc2cc3nc(-c4cccc5[nH]ncc45)nc(N4CCOCC4)c3s2)CC1 [Pictilisib] (partner 1 µM)
Value observed: 0.461
//
Molecule: C=C1C(=O)O[C@@H](CCCCCCCC)[C@@H]1C(=O)O [C-75] + O=C(CCCCCCC(=O)Nc1ccccc1)NO [Vorinostat] (partner 1 µM)
Value observed: 0.885

What value of relative viability has been recorded for this entry: C=C1C(=O)O[C@@H](CCCCCCCC)[C@@H]1C(=O)O [C-75] + CC(=O)Nc1cccc(-n2c(=O)n(C3CC3)c(=O)c3c(Nc4ccc(I)cc4F)n(C)c(=O)c(C)c32)c1 [Trametinib] (partner 0.02 µM)
0.533

###

# System: COR-L 105
# Experimental protocol: relative viability (nuclei count vs DMSO), 5 days (fraction); higher = more cells survive
# Assay setup: first compound 8 µM
rule met if relative viability is below 0.6. rule not met if not; exact matches included in rule not met.

Some entries whose results are on file:
Molecule: C=C1C(=O)O[C@@H](CCCCCCCC)[C@@H]1C(=O)O [C-75] + CC(C)C[C@H](NC(=O)[C@H](Cc1ccccc1)NC(=O)c1cnccn1)B(O)O [Bortezomib] (partner 0.002 µM)
Category: rule not met

Molecule: C=C1C(=O)O[C@@H](CCCCCCCC)[C@@H]1C(=O)O [C-75] + CC1(C)CCC(c2ccc(Cl)cc2)=C(CN2CCN(c3ccc(C(=O)NS(=O)(=O)c4ccc(N[C@H](CCN5CCOCC5)CSc5ccccc5)c(S(=O)(=O)C(F)(F)F)c4)cc3)CC2)C1 [Navitoclax] (partner 0.5 µM)
Category: rule met

I'd appreciate it if you could check whether C=C1C(=O)O[C@@H](CCCCCCCC)[C@@H]1C(=O)O [C-75] + C[C@@H](Oc1cc(-c2cnn(C3CCNCC3)c2)cnc1N)c1c(Cl)ccc(F)c1Cl [Crizotinib] (partner 1 µM) has relative viability smaller than 0.6.
rule met

What would you report for C=C1C(=O)O[C@@H](CCCCCCCC)[C@@H]1C(=O)O [C-75] + CCNC(=O)c1noc(-c2cc(C(C)C)c(O)cc2O)c1-c1ccc(CN2CCOCC2)cc1 [Luminespib] (partner 0.01 µM) ?
rule not met

Next molecule: C=C1C(=O)O[C@@H](CCCCCCCC)[C@@H]1C(=O)O [C-75] + CC(=O)Nc1cccc(-n2c(=O)n(C3CC3)c(=O)c3c(Nc4ccc(I)cc4F)n(C)c(=O)c(C)c32)c1 [Trametinib] (partner 0.02 µM)
rule met

###

# System: NCI-H650
# Experimental protocol: relative viability (nuclei count vs DMSO), 5 days (fraction); higher = more cells survive
# Assay setup: first compound 0.005 µM
Please go through the items and note down their relative viability.

Compound: CC1(C)CCC(c2ccc(Cl)cc2)=C(CN2CCN(c3ccc(C(=O)NS(=O)(=O)c4ccc(N[C@H](CCN5CCOCC5)CSc5ccccc5)c(S(=O)(=O)C(F)(F)F)c4)cc3)CC2)C1 [Navitoclax] + N=C(N)NC(=N)NCCc1ccccc1 [Phenformin] (partner 250 µM)
Value observed: 0.447

Compound: CC1(C)CCC(c2ccc(Cl)cc2)=C(CN2CCN(c3ccc(C(=O)NS(=O)(=O)c4ccc(N[C@H](CCN5CCOCC5)CSc5ccccc5)c(S(=O)(=O)C(F)(F)F)c4)cc3)CC2)C1 [Navitoclax] + CC(C)C[C@H](NC(=O)[C@H](Cc1ccccc1)NC(=O)c1cnccn1)B(O)O [Bortezomib] (partner 0.002 µM)
Value observed: 0.742

Compound: CC1(C)CCC(c2ccc(Cl)cc2)=C(CN2CCN(c3ccc(C(=O)NS(=O)(=O)c4ccc(N[C@H](CCN5CCOCC5)CSc5ccccc5)c(S(=O)(=O)C(F)(F)F)c4)cc3)CC2)C1 [Navitoclax] + COc1cccc2cc(-c3nc([C@H]4CC[C@H](C(=O)O)CC4)n4ncnc(N)c34)[nH]c12 [OSI-027] (partner 0.5 µM)
Value observed: 0.525

# ---- query compound ----
What relative viability value was documented for this compound, CC1(C)CCC(c2ccc(Cl)cc2)=C(CN2CCN(c3ccc(C(=O)NS(=O)(=O)c4ccc(N[C@H](CCN5CCOCC5)CSc5ccccc5)c(S(=O)(=O)C(F)(F)F)c4)cc3)CC2)C1 [Navitoclax] + O=C(c1cc(Cc2n[nH]c(=O)c3ccccc23)ccc1F)N1CCN(C(=O)C2CC2)CC1 [Olaparib] (partner 8 µM) ?
0.395

###

# Test system: EKVX
# Experimental protocol: relative viability (nuclei count vs DMSO), 5 days (fraction); higher = more cells survive
# Assay setup: first compound 0.08 µM
Labelling: relative viability reported below 0.7 becomes Condition met; at or above becomes Condition not met.

Compound: C=C1C(=O)O[C@@H](CCCCCCCC)[C@@H]1C(=O)O [C-75] + C[C@@H](Oc1cc(-c2cnn(C3CCNCC3)c2)cnc1N)c1c(Cl)ccc(F)c1Cl [Crizotinib] (partner 1 µM)
Category: Condition not met
--
Compound: Oc1nc(-c2ccc(C(F)(F)F)cc2)nc2c1CSCC2 [XAV939] + N=C(N)NC(=N)NCCc1ccccc1 [Phenformin] (partner 250 µM)
Category: Condition met
--
Compound: C=C1C(=O)O[C@@H](CCCCCCCC)[C@@H]1C(=O)O [C-75] + N=C(N)NC(=N)NCCc1ccccc1 [Phenformin] (partner 250 µM)
Category: Condition met
--
Compound: C=C1C(=O)O[C@@H](CCCCCCCC)[C@@H]1C(=O)O [C-75] + O=C(CCCCCCC(=O)Nc1ccccc1)NO [Vorinostat] (partner 1 µM)
Category: Condition not met

Regarding Oc1nc(-c2ccc(C(F)(F)F)cc2)nc2c1CSCC2 [XAV939] + COc1cc2c(Oc3ccc(NC(=O)C4(C(=O)Nc5ccc(F)cc5)CC4)cc3F)ccnc2cc1OCCCN1CCOCC1 [Foretinib] (partner 0.25 µM) , kindly confirm whether its relative viability is beneath 0.7.
Condition not met
